Recorded pIC50 values for a group of compounds are listed next.
targetDesc: Cyclic GMP-AMP synthase (Homo sapiens, UniProt Q8N884)
Sequence (Q8N884 whole entry): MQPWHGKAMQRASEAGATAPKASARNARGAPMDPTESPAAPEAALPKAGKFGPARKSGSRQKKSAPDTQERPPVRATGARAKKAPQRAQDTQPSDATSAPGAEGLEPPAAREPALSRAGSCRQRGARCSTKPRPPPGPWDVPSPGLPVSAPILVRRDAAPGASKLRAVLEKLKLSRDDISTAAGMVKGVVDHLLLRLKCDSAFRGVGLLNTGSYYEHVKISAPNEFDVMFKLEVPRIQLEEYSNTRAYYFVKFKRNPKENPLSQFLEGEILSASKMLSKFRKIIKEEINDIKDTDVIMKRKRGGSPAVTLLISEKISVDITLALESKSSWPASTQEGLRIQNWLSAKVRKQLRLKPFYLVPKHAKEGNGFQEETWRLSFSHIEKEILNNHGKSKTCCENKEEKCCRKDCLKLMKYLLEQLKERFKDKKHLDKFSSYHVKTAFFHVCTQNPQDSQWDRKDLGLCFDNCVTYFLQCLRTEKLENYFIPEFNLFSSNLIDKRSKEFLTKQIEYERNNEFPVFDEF
procedureText: Inhibition of recombinant His6-SUMO tagged human CGAS expressed in Escherichia coli BL21/pLys cells incubated for 20 mins by Kinase Glo chemiluminescence assay
pIC50: −log10 of the molar value.

A selection of reference data follows.
Which measured pIC50 value corresponds to `CN1C(=O)S/C(=C\c2cc(OCC(=O)c3cnc(N)nc3)c(O)c(F)c2Br)C1=O` ?
5.00 to 6.30

Which measured pIC50 value corresponds to `CN1C(=O)S/C(=C\c2cc(OCc3cn(-c4ccccc4)nn3)c(O)cc2Br)C1=O` ?
≤ 5.00

Which measured pIC50 value corresponds to `CN1C(=O)S/C(=C\c2cc(OCc3cn(-c4ccncc4)nn3)c(O)cc2Br)C1=O` ?
≤ 5.00

The record that follows has no pIC50 shown yet.
Which measured pIC50 value corresponds to `COc1cc(/C=C2\SC(=O)N(C)C2=O)c(Br)cc1NS(C)(=O)=O` ?
≤ 5.00

###

Recorded IC50 values for a group of compounds are listed next.
targetDesc: Cyclic GMP-AMP synthase (Homo sapiens)
procedureText: Inhibition of recombinant His6-SUMO tagged human CGAS expressed in Escherichia coli BL21/pLys cells incubated for 20 mins by Kinase Glo chemiluminescence assay

A selection of reference data follows.
Which measured IC50 value corresponds to `O=C1NC(=O)/C(=C/c2ccncc2)S1` ?
≤ 500 nM

Which measured IC50 value corresponds to `COc1cc(/C=C2\SC(=O)N(C)C2=O)c(Br)cc1O` ?
≤ 500 nM

Which measured IC50 value corresponds to `CN1C(=O)S/C(=C\c2cc(OCc3cccnc3)c(O)c(F)c2Br)C1=O` ?
≤ 500 nM

Which measured IC50 value corresponds to `CN1C(=O)S/C(=C\c2cc(Oc3cccc4ncccc34)c(O)cc2Br)C1=O` ?
≥ 10000 nM

Which measured IC50 value corresponds to `CN1C(=O)S/C(=C\c2cc(OCc3cnc(Cl)nc3)c(O)cc2Br)C1=O` ?
≤ 500 nM

Which measured IC50 value corresponds to `Cc1nc(N)ncc1COc1cc(/C=C2\Sc3ncccc3C2=O)c(Br)cc1O` ?
≤ 500 nM

---
Which measured IC50 value corresponds to `CN1C(=O)S/C(=C\c2cc(OCc3cnc(S(C)(=O)=O)nc3Cl)c(O)cc2Br)C1=O` ?
≥ 10000 nM

Which measured IC50 value corresponds to `COc1cc(/C=C2\SC(=O)N(C)C2=O)c(Br)cc1Oc1ccnc2ccccc12` ?
≥ 10000 nM

Which measured IC50 value corresponds to `CN1C(=O)S/C(=C\c2cc(OCc3ccc(NC(=O)c4cccnc4)nc3)c(O)cc2Br)C1=O` ?
500 to 10000 nM

Which measured IC50 value corresponds to `COc1cc(/C=C2\SC(=O)N(C)C2=O)c(Br)cc1NS(=O)(=O)c1csc(N)n1` ?
500 to 10000 nM

###

targetDesc: Cyclic GMP-AMP synthase (Homo sapiens)
procedureText: Inhibition of recombinant His6-SUMO tagged human CGAS expressed in Escherichia coli BL21/pLys cells incubated for 20 mins by Kinase Glo chemiluminescence assay
resultType: IC50

A selection of reference data follows.
Which measured IC50 value corresponds to `CN1C(=O)S/C(=C\c2cc(OCc3cnc(N4CCNCC4)nc3)c(O)cc2Br)C1=O` ?
≤ 500 nM

Which measured IC50 value corresponds to CC(Oc1cc(/C=C2\SC(=O)N(C)C2=O)c(Br)cc1O)c1cncnc1 (stereo unspecified) ?
500 to 10000 nM

Which measured IC50 value corresponds to `CN1C(=O)S/C(=C\c2cc3c(-c4cnc(N)nc4)c[nH]c3c(F)c2Br)C1=O` ?
≤ 500 nM

Which measured IC50 value corresponds to `COc1cc(/C=C2\SC(=O)N(C)C2=O)c(Br)cc1-c1nn[nH]n1` ?
≥ 10000 nM

Which measured IC50 value corresponds to `COc1cc(/C=c2\sc3nccn3c2=O)c(Br)cc1O` ?
≤ 500 nM

Which measured IC50 value corresponds to CC(Oc1cc(/C=C2\Sc3ncccc3C2=O)c(Br)cc1O)c1cnc(Cl)nc1 (stereo unspecified) ?
≤ 500 nM

Which measured IC50 value corresponds to CN1C(=O)S/C(=C\c2cc(OCc3cnc([S+](C)[O-])nc3Cl)c(O)cc2Br)C1=O (stereo unspecified) ?
≥ 10000 nM

Which measured IC50 value corresponds to `COc1cc(/C(Br)=C2\SC(=O)N(C)C2=O)c(Br)cc1O` ?
≥ 10000 nM

Which measured IC50 value corresponds to `CN1C(=O)S/C(=C\c2cc(OCc3cnc(C4CCNCC4)nc3)c(O)cc2Br)C1=O` ?
500 to 10000 nM

Which measured IC50 value corresponds to `CN1C(=O)S/C(=C\c2cc3c(Cc4cnc(N)nc4)c[nH]c3c(F)c2Br)C1=O` ?
≤ 500 nM

---
Which measured IC50 value corresponds to `Cc1ncc(COc2cc(/C=C3\Sc4ncccc4C3=O)c(Br)cc2O)cn1` ?
≤ 500 nM

Which measured IC50 value corresponds to `COc1cc(/C=C2\Sc3ncccc3C2=O)c(Br)c(Cl)c1O` ?
≤ 500 nM

Which measured IC50 value corresponds to `CN1C(=O)S/C(=C\c2cc(O/C=C/c3cnc(N)nc3)c(O)c(F)c2Br)C1=O` ?
≤ 500 nM

Which measured IC50 value corresponds to `CCc1cc(/C=C2\SC(=O)N(C)C2=O)c(Br)cc1O` ?
500 to 10000 nM

Which measured IC50 value corresponds to `CN1C(=O)S/C(=C\c2cc(OCc3cnc(Nc4ccccc4)nc3)c(O)cc2Br)C1=O` ?
≥ 10000 nM

Which measured IC50 value corresponds to `COc1cc(/C=C/C=C2\SC(=O)N(C)C2=O)c(Br)cc1O` ?
≥ 10000 nM

Which measured IC50 value corresponds to `CNc1ncc(COc2cc(/C=C3\Sc4ncccc4C3=O)c(Br)cc2O)cn1` ?
≤ 500 nM

Which measured IC50 value corresponds to `Cc1nc2c(Oc3cc(/C=C4\SC(=O)N(C)C4=O)c(Br)cc3O)cccc2o1` ?
500 to 10000 nM

###

Recorded pIC50 values for a group of compounds are listed next.
targetDesc: Cyclic GMP-AMP synthase (Homo sapiens)
procedureText: Inhibition of recombinant His6-SUMO tagged human CGAS expressed in Escherichia coli BL21/pLys cells incubated for 20 mins by Kinase Glo chemiluminescence assay
pIC50: −log10 of the molar value.

Which measured pIC50 value corresponds to `CN1C(=O)S/C(=C\c2cc(OCc3cnc(NCc4ccccc4)nc3)c(O)cc2Br)C1=O` ?
≤ 5.00

###

targetDesc: Cyclic GMP-AMP synthase (Homo sapiens, UniProt Q8N884)
procedureText: Inhibition of CGAS in human THP1 cells transfected with interferon stimulatory DNA and measured after 16 hrs by Gaussia luciferase reporter gene assay
Format: cell-based
pIC50: −log10 of the molar value.
Recorded pIC50 values for a group of molecules are listed next.

A selection of reference data follows.
Which measured pIC50 value corresponds to `CN1C(=O)S/C(=C\c2cc(OCc3cnc(NC4CC4)nc3)c(O)cc2Br)C1=O` ?
≥ 5.60

Which measured pIC50 value corresponds to `CNc1ncc(COc2cc(/C=C3\SC(=O)N(C)C3=O)c(Br)cc2O)cn1` ?
≥ 5.60

Which measured pIC50 value corresponds to CC1C(=O)S/C(=C\c2cc(OC(C)c3cnc(Cl)nc3)c(O)c(F)c2Br)C1=O (stereo not given) ?
5.00 to 5.60

---
Which measured pIC50 value corresponds to `O=C1/C(=C/c2cc(OCc3cnc(NCc4cccnc4)nc3)c(O)c(F)c2Br)Sc2ncccc21` ?
5.00 to 5.60

Which measured pIC50 value corresponds to CC(Oc1cc(/C=C2\Sc3ncccc3C2=O)c(Br)cc1O)c1cnc(NCCO)nc1 (stereo not given) ?
5.00 to 5.60

Which measured pIC50 value corresponds to `COc1cc(/C=C2\SC(=O)N(C)C2=O)c(Br)cc1NS(=O)(=O)c1csc(N)n1` ?
≥ 5.60

Which measured pIC50 value corresponds to `CN1C(=O)S/C(=C\c2cc(OCc3cnc(Cl)nc3N)c(O)c(F)c2Br)C1=O` ?
5.00 to 5.60

Which measured pIC50 value corresponds to `CCN1C(=O)S/C(=C\c2cc(OC)c(O)cc2Br)C1=O` ?
5.00 to 5.60

Which measured pIC50 value corresponds to `COc1cc(/C=C2\SC(=O)N(C)C2=O)c(Br)cc1NS(=O)(=O)c1ccccn1` ?
5.00 to 5.60

Which measured pIC50 value corresponds to `Cc1nc(N)ncc1COc1cc(/C=C2\Sc3ncccc3C2=O)c(Br)cc1O` ?
≥ 5.60

Which measured pIC50 value corresponds to `CN1C(=O)S/C(=C\c2cc(OCc3cn[nH]c3)c(O)cc2Br)C1=O` ?
≥ 5.60
